Target: hCA IV (Homo sapiens, UniProt P22748)
Construct: gene CA4
Sequence (P22748 19-284): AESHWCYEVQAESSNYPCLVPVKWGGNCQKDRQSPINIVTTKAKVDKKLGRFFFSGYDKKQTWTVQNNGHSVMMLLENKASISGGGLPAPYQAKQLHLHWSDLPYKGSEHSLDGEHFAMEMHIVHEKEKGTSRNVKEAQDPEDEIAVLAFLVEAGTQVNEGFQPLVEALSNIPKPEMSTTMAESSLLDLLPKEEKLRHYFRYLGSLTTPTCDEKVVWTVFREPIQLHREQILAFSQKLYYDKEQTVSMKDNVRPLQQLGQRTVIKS
Test: biochemical
Set-up: Stopped-flow CO2 hydration assay, phenol red at 557 nm, 10 min preincubation, recombinant hCA; Ki via Cheng-Prusoff
pKi: −log10 of the molar value.
measurement.type: pKi

# annotated cases, reported pKi shown
Cc1cccc(-n2cc(CNC(=O)c3cccc(S(N)(=O)=O)c3)nn2)c1C; 5.07
COc1ccc(C(=O)NCc2cn(-c3ccccc3)nn2)cc1S(N)(=O)=O; 5.03
COc1ccc(C(=O)NCc2cn(-c3ccc(C)cc3)nn2)cc1S(N)(=O)=O; 5.12
COc1ccc(C(=O)NCc2cn(-c3ccc(Br)cc3)nn2)cc1S(N)(=O)=O; 5.04
NS(=O)(=O)c1cccc(C(=O)NCc2cn(-c3ccccc3)nn2)c1; 5.03
COc1ccccc1-n1cc(CNC(=O)c2ccc(OC)c(S(N)(=O)=O)c2)nn1; 5.05

P = C#CCNC(=O)c1ccc(OC)c(S(N)(=O)=O)c1
Q = NS(=O)(=O)c1cc(C(=O)O)ccc1F
R = Cc1ccc(-n2cc(CNC(=O)c3cccc(S(N)(=O)=O)c3)nn2)c(C)c1
Rank ascending by pKi. Give your ranking as a list of the labels in the requested order.
P, R, Q
(P: 5.16, R: 5.75, Q: 6.02)
